Please provide measured inhibition for the entries that follow.
- Assay Explanation: CRL1545 cell growth, single agent and combined, cisplatin and BGB IC20 combos (AID 1671464);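 further: cells exposed to compound for 96 hours before readout; 0% = vehicle DMSO and 100% = high DMSO killing control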
- Test Conditions: CRL1545 osteosarcoma cells, measured here: with cisplatin IC20 combination, at 0.5 µM, stronger effect = higher value
Please reply with the bare figure in % and do not write the unit itself.

Lookup: Return the recorded inhibition value; entry: CN[C@@H]1CN(c2ccc3c(=O)c(C(=O)O)cn(-c4nccs4)c3n2)C[C@H]1OC
Found: 16.4

Lookup: Tell me measured inhibition for O=c1[nH]c([C@@H]2CCCN2)nc2c1oc1ccc(Cl)cc12 please.
Found: -36.2

Lookup: For the molecule NC(=O)c1nc(F)c[nH]c1=O , give its reported inhibition.
Found: 16

Lookup: Determine from records and report inhibition for CN(C)Cc1c(C(=O)NCCOc2ccc(C(=O)NO)cc2)oc2ccccc12
Found: 81.1

Lookup: Provide measured inhibition value, entry: CN(C)c1ccc(C(=O)NCCCCCCC(=O)NO)cc1
Found: 78

Lookup: Report inhibition, nothing else, for this molecule: CO[C@H]1/C=C/O[C@@]2(C)Oc3c(C)c(O)c4c(O)c(c(/C=N\N5CCN(C6CCCC6)CC5)c(O)c4c3C2=O)NC(=O)/C(C)=C\C=C\[C@H](C)[C@H](O)[C@@H](C)[C@@H](O)[C@@H](C)[C@H](OC(C)=O)[C@@H]1C
Found: -7.81

Lookup: Give reported inhibition value for CC(=O)Nc1ccc(C(=O)Nc2ccccc2N)cc1
Found: 46.2

Lookup: Tell me inhibition reported for CCCCc1nc2cc(/C=C/C(=O)NO)ccc2n1CCN(CC)CC
Found: 88.2

Lookup: Give the reported inhibition for this molecule. C=C1[C@H](CO)[C@@H](O)C[C@@H]1n1cnc2c(=O)[nH]c(N)nc21
Found: 8.8

====

- Assay Explanation: growth inhibition of DIPG cells – cell-based, MIPE4.0 library, CellTiter-Glo luminescence, qHTS (AID 1347066);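 further: cells exposed to compound for 48 hours before readout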
- Test Conditions: SU-DIPG-VI viability, CellTiter-Glo ATP luminescence
Results filed as inconclusive are left out. Calls of active or inactive are those of the source. Cut-off not given; nearly all actives show AC50 up to about 30 µM. Where a SMILES comes first, the peptide text is derived from it. The star is where a group is joined. Cbz = O=C(OCc1ccccc1)*
Property Measured: AC50

>  <Compound>
CC/C=C\C[C@H]1C(=O)CC[C@@H]1CC(=O)OC

>  <Reported>
inactive

$$$$
>  <Compound>
CC(C)C[C@@H](C=O)NC(=O)[C@H](CC(C)C)NC(=O)[C@H](CC(C)C)NC(=O)OCc1ccccc1 (Cbz-Leu-Leu-Leu-aldehyde)

>  <Reported>
296 nM (active)

$$$$
>  <Compound>
N#Cc1cc(NC(=O)Nc2nnc(-c3ccncc3)s2)ccc1-c1cn[nH]c1

>  <Reported>
inactive

$$$$
>  <Compound>
COc1ccc2c(Oc3ccc(NC(=O)c4c(C)n(CC(C)(C)O)n(-c5ccccc5)c4=O)nc3)ccnc2c1

>  <Reported>
inactive

$$$$

====

Provide the reported viability of each item.
- Assay Explanation: drug combination growth inhibition, ovarian cancer – cell-based, oncology-focused library, rucaparib conditional, profiling panel (AID 1508598)
- Test Conditions: patient-derived ovarian cancer cells, CellTiter-Glo viability, 144 h; at 0.00488 µM; OCI-C5x cells; without rucaparib; stronger effect = lower value
Your answer should be a plain number; it is taken to be in %.

Lookup: Identify measured viability associated with C#Cc1cccc(Nc2ncnc3cc(OC)c(OCCCCCCC(=O)NO)cc23)c1
Found: 106

Lookup: Tell me measured viability for C[C@@H]1CN(CC(=O)Nc2ccc3c(c2)Cc2cccc(-c4cc(=O)cc(N5CCOCC5)o4)c2S3)C[C@H](C)O1 please.
Found: 129

Lookup: Input COc1cc(OC)c(/C=C/S(=O)(=O)Cc2ccc(OC)c(NCC(=O)O)c2)c(OC)c1 , output reported viability.
Found: 115

Lookup: Please give measured viability of the following entry: CCCS(=O)(=O)Nc1ccc(F)c(C(=O)c2c[nH]c3ncc(-c4ccc(Cl)cc4)cc23)c1F
Found: 106

Lookup: Give the measured viability for Cc1ccc2nc(NC(=O)CSc3nc4c(c(=O)n3-c3ccccc3)SCC4)sc2c1
Found: 118

Lookup: Fill in reported viability for this entry: COc1ncc(-c2ccc3nccc(-c4ccnnc4)c3c2)cc1NS(=O)(=O)c1ccc(F)cc1F
Found: 53.2

Lookup: State its viability for this molecule: CC(C)OC(=O)C1=CN(C(=O)c2ccc(F)c(F)c2)CC(C)(C)c2c1[nH]c1ccccc21
Found: 128

Lookup: Return value of viability for input Cc1cccc(-c2nn3c(c2-c2ccnc4ccc(C(N)=O)cc24)CCC3)n1 , no commentary.
Found: 128

Lookup: State its viability: COCCOc1nc(-c2ccc(Cl)c(Cl)c2)n(-c2ccc(NC(=O)CCl)cc2)n1
Found: 113

====

What fold change was measured for each of the following?
- Assay Explanation: viability loss with induced miR-34 in A549 – imaging, A549 dox-inducible miR-34, nuclei and caspase counts, primary screen (AID 1347080)
- Test Conditions: A549 miR-34 inducible, Hoechst nuclei count, 48 h; measured here: relative caspase fold change +Dox/-Dox
Just the number, please.

Lookup: Supply reported fold change belonging to this compound: N#Cc1ccc(NCCNCC(=O)N2CCC[C@H]2C#N)nc1
Found: 2.19

Lookup: Identify measured fold change corresponding to c1cncc(CN2CCC(n3ncc4c(N5CCOCC5)nc(-c5ccc6[nH]ccc6c5)nc43)CC2)c1
Found: 0.489

Lookup: For the compound O=C(O)CCC/C=C\C[C@@H]1[C@@H](/C=C/[C@H](O)COc2cccc(C(F)(F)F)c2)[C@H](O)C[C@@H]1O , report fold change.
Found: 0.987

Lookup: Tell me measured fold change for CCCCC(C)(C)[C@H](O)/C=C/[C@H]1C(=O)C[C@H](O)[C@@H]1C/C=C\CCCC(=O)O please.
Found: 0.943

Lookup: In one line, give reported fold change of the entry CC#CCC(C)[C@@H](O)/C=C/[C@@H]1[C@H]2C/C(=C/CCCC(=O)O)C[C@H]2C[C@H]1O (some centres undefined) .
Found: 2.36

Lookup: Annotate the compound CC(C)c1cc(C(C)C)c(CC(=O)NS(=O)(=O)Oc2c(C(C)C)cccc2C(C)C)c(C(C)C)c1 with its measured fold change.
Found: 0.65

Lookup: Input Cn1cc(-c2cnn3c(N)c(Br)c(C4CCCNC4)nc23)cn1 (centres undefined) , output reported fold change.
Found: 0.873

Lookup: Consider the compound CNC(=O)c1ccc2c(C(=Nc3cccc(CN(C)C)c3)c3ccccc3)c(O)[nH]c2c1 . State its measured fold change.
Found: 0.894

Lookup: Fill in reported fold change for this entry: NCc1cccc2ccncc12
Found: 0.524

Lookup: Given the compound COCCn1c2c([n+](Cc3cnccn3)c1C)C(=O)c1ccccc1C2=O , write its reported fold change.
Found: 0.996

Lookup: Specify measured fold change for CSc1ccc([C@H]2CN3CCC[C@H]3c3ccccc32)cc1 .
Found: 1.33

Lookup: Give a short answer stating reported fold change for CCCCC1C(=O)CC[C@H]2[C@@H]1CC(=O)[C@@H]2C/C=C\CCCC(=O)O (some centres undefined) .
Found: 1.48

Lookup: # return recorded fold change for input Cc1cc(N2CCOCC2)ccc1Nc1nc(NC2CCCCC2)c2[nH]cnc2n1
Found: 0.505

Lookup: Report measured fold change; entry is CCCNC(=O)[C@H]1O[C@@H]1C(=O)N[C@H](C(=O)N1CCC[C@H]1C(=O)OC)C(C)CC (some centres undefined)
Found: 1.21

Lookup: Answer with reported fold change of C[C@@H]1C(=O)OC2[C@H](O)C34[C@H]5C[C@@H](C(C)(C)C)[C@]36[C@@H](OC(=O)[C@@H]6O)O[C@@]4(C(=O)O5)[C@]21O (some centres undefined)
Found: 0.53

Lookup: Entry O=C(O)CCC/C=C\C[C@@H]1C(=O)C[C@@H](O)[C@@H]1/C=C/[C@@H](O)CC1CCCCC1 needs its fold change filled in; supply it.
Found: 0.461

Lookup: Could you please provide reported fold change for CCCCCCCC/C=C\CCCCCC(=O)OC ? Thanks!
Found: 0.755

Lookup: Supply reported fold change belonging to this compound: COc1cccc(Nc2c(C(N)=O)cnc3c(C)cc(S(=O)(=O)c4cccc(C(=O)N(C)C)c4)cc23)c1
Found: 0.8

Lookup: Report measured fold change; entry is Nc1ncnc2c1c(-c1cccc(OCc3ccccc3)c1)cn2C1CC(CN2CCC2)C1 (centres undefined)
Found: 0.834

Lookup: Please list fold change recorded for the compound CN(C)CCCCSC(=N)N
Found: 0.637

Lookup: Indicate the recorded fold change value for this compound: CC/C=C\C/C=C\C/C=C\CCCCCCCC(=O)OCC
Found: 0.639

Lookup: For Cc1cc(-c2ncc(CC(=O)Nc3ccc(-c4cnccn4)cn3)cc2C)ccn1 , write its fold change.
Found: 0.406

Lookup: # return recorded fold change for entry CCCN(C/C=C/I)C1CCc2cccc(O)c2C1 (centres undefined)
Found: 1.14

Lookup: Using known records, supply fold change for CCCCCCCC/C=C\CCCCCCCC(=O)NCCS(=O)(=O)O
Found: 0.63

Lookup: Give reported fold change value for CCCCC(C)(C)[C@H](O)/C=C/[C@H]1[C@H](O)CC(=O)[C@@H]1CCCCCCC(=O)O
Found: 1.17

Lookup: Tell me its fold change given CC(C)OC(=O)CCC/C=C\C[C@@H]1[C@@H](/C=C/[C@@H](O)CCc2ccccc2)[C@H](O)C[C@@H]1O as the entry.
Found: 1.39

Lookup: // fetch fold change given entry COc1ccc(NC(=O)c2ccc(-c3ccc(-c4noc(C)n4)cc3C)cc2)cc1OCCN(C)C
Found: 1.18

Lookup: Please list fold change recorded for the compound CCCCCCCCCCCCCCNC(=O)C1CCCCC1
Found: 0.661

Lookup: Complete the entry with fold change for CCc1ccccc1OC[C@@H](O)CN[C@H]1CCCc2ccccc21
Found: 0.799

Lookup: Output fold change of O=C1OC2(c3ccc(O)cc3Oc3cc(OS(=O)(=O)c4c(F)c(F)c(F)c(F)c4F)ccc32)c2ccccc21 (centres undefined)
Found: 0.755

Lookup: Tell me measured fold change for CCCCCC(=O)CC[C@H]1[C@H](O)CC(=O)[C@@H]1CCCCCCC(=O)O please.
Found: 1.43

Lookup: Please look at this compound and report its fold change: CC(C)(C)n1nc(-c2cccc3ccccc23)c2c(N)ncnc21
Found: 1.81

Lookup: Report fold change, nothing else, for this compound: c1cc2c(cc1C1CCCCC1)c1c3n2CCNC3CCC1 (centres undefined)
Found: 1.07

Lookup: Return reported fold change. Input compound: Cc1nc(COP(=O)(O)O)cc(CN(CCN(CC(=O)O)Cc2cc(COP(=O)(O)O)nc(C)c2O)CC(=O)O)c1O.[Mn]
Found: 0.746

Lookup: Quickly give me recorded fold change for CC/C=C\C/C=C\C/C=C\CCCCCCCC(=O)N[C@@H](Cc1ccc(O)cc1)C(=O)O
Found: 2.46

Lookup: Quote fold change reported for COc1c(C)cnc(Cn2cnc3c(Cl)nc(N)nc32)c1C please.
Found: 1.45

Lookup: Please look at this compound and report its fold change: CCCCCCCCCCCCCCCC(=O)OC[C@H](COP(=O)([O-])OCC[N+](C)(C)C)OC(=O)CCCCCCCC(=O)/C=C/C(=O)O
Found: 0.858

Lookup: Dear colleague, please send me the reported fold change for NC1=NC(=O)/C(=C/c2ccc(O)cc2)S1 when you can.
Found: 1.49

Lookup: Return fold change (reported value) for this compound: C=CC(=O)Nc1cccc(Nc2nc(Nc3ccc(Oc4ccnc(C(=O)NC)c4)cc3)ncc2F)c1
Found: 0.336
